system-under-test: human PPARα ligand-binding domain (Gal4 chimera) (Homo sapiens)
Construct: coding for the hinge region and LBD of the canonical isoform of the respective nuclear receptor; expressed in transfected cells; host or cells: HEK293T
Sequence (Q07869 239-466 limits assumed): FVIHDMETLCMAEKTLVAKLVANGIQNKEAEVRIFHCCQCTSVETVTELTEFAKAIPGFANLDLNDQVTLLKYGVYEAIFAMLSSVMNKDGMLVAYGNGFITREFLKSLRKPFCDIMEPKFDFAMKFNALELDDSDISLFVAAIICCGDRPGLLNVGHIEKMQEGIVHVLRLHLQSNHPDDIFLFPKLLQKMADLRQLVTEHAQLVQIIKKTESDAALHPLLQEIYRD
assay-name: Gal4 hybrid reporter gene assay, PPARα
Type: cell-based
recorded-conditions: EC50 [μM] PPARα, HEK293T; mean ± SEM, n = 3
endpoint-name: log10(EC50) (log10 of the value in µM)
Give log10 of EC50, with EC50 taken in µM.

In the examples that follow, each entry is paired with its recorded log10(EC50).
>>> print(df.to_string())
                                smiles_repr  reported_result
0  Cc1cccc(NC(=O)c2ccc3ccccc3c2)c1C(=O)Nc1cccc(CCC(=O)O)c1             0.87
1  CC(C)(Nc1cccc(NC(=O)c2ccccc2NC(=O)c2ccc3ccccc3c2)c1)C(=O)O             0.23
2  Cc1cccc(C(=O)Nc2cccc(CCC(=O)O)c2)c1NC(=O)c1ccc2ccccc2c1             0.79
3  O=C(O)CCc1cccc(NC(=O)c2ccc(OC(F)(F)F)cc2NC(=O)c2ccc3ccccc3c2)c1             0.04

Each compound below has a recorded value; state its log10(EC50).
1. Cc1ccc(C(=O)Nc2cccc(CCC(=O)O)c2)c(NC(=O)c2ccc3ccccc3c2)c1
2. COc1ccc(C(=O)Nc2cccc(CCC(=O)O)c2)c(NC(=O)c2ccc3ccccc3c2)c1

A)
0.23
-0.52
